# Assay System: T1, mouse GLP-1 receptor (mouse, UniProt O35659 22-463)
# T1 sequence (looked up): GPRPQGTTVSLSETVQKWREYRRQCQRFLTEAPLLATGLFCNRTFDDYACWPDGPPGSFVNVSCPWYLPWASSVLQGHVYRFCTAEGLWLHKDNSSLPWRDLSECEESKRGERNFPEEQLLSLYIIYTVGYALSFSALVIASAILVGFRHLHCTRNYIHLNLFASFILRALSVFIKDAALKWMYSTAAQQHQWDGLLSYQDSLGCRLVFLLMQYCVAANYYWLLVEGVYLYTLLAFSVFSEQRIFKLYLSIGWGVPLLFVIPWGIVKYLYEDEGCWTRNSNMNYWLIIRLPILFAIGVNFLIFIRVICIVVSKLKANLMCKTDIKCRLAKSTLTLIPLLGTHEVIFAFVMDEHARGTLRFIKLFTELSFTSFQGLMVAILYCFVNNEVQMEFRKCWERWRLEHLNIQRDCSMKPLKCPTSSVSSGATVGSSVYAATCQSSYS
# Measurement Notes: cell-based or functional assay
Ends that are not written are not given here.
Outcome Measure: cAMP EC50 (nM)
Answers are plain numbers, in nM.

IP298 (Fc fusion) YSEGTFTSDVSSYLERQAIDEFIAWLLKGGAAAGGSGSTASSGSGSATGGGGAATHTCPPC	0.36
IP357 (Fc fusion) YSEGTFTSDFSKLLEEEAVRLFIEFLLAGGGGGGSGGGGSGGGGSGGGGSATHTCPPC	1.1

Please examine the following record next.
Q) # cAMP EC50 lookup, item IP235 (Fc fusion, cysteine pairing not given here; also: fused to IgG1-TM Fc) YSEGTFTSDYSKLLEEEAVRLFIEWLVKGPGGGGGSGGGGSATHTCPPCPAPEF
A) 0.6

Numbers sourced from patent US20160185837A1.
